test system: L1210 leukemia ip in BDF1 mice, survival T/C; experiment: NCI In Vivo Anticancer Drug Screen. Data for tumor model L1210 Leukemia (intraperitoneal) in B6D2F1 (BDF1) mice; details: endpoint: mean survival time; dose: 100.0 mg/kg/injection; schedule: Q04DX003 (ip); vehicle: other; higher = longer survival
Toxic doses and inconclusive results are not listed.
quantity: T/C

Consider the worked cases shown below.
INSERT INTO measurements (compound, readout_value) VALUES
  ('COC(=O)c1ccc(=O)n(C/C=C(\C)CCC(=O)O)c1', '93 % of control'),
  ('COC(=O)/C=C/Sc1ccccc1C(=O)OC', '87 % of control');

Sample `CCc1nc2c(OC)ccc(OC)c2[nH]c1=O` ; T/C observed: 103 % of control

Briefly, T/C measured for COC1CN(C)C(=Nc2cccc3ccccc23)S1 (configuration not stated) : 103 % of control

For `Cc1ccc(C(=O)CCc2ccccc2)cc1` the compound record lists T/C as 92 % of control

T/C reading for `CNS(=O)(=O)c1ccc(NC(=O)CCl)cc1` : 101 % of control

response.value for `O=C(CC(O)(C(F)(F)F)C(F)(F)F)c1ccc([N+](=O)[O-])cc1` (field: T/C) = 100 % of control

###

test system: L1210 leukemia ip in BDF1 mice, survival T/C; assay: NCI In Vivo Anticancer Drug Screen. Data for tumor model L1210 Leukemia (intraperitoneal) in B6D2F1 (BDF1) mice; conditions: endpoint: mean survival time; dose: 100.0 mg/kg/injection; schedule: Q01DX009 (ip); vehicle: Klucel (hydroxypropylcellulose) (HPC); higher = longer survival
Inconclusive results and toxic doses are left out. Square brackets hold non-standard residues; d marks the D form. Peptide text beside a SMILES is read from it. * marks the point of attachment. ξ: configuration not given here. ξF = NC(Cc1ccccc1)C(=O)O; Cbz = O=C(OCc1ccccc1)*
Reported T/C by item:

Consider the reported T/C for these compounds:
INSERT INTO assay_data (compound, quantity, readout_value) VALUES
  ('CCCCNS(=O)(=O)c1ccc(OC)c(N)c1', 'T/C', '98 % of control'),
  ('CCSc1nc2nccnc2c(=O)[nH]1', 'T/C', '98 % of control');

Record summary for `O=c1[nH]c2ccc(Cl)cc2c2nc3ccccc3n12` : reported T/C = 101 % of control

# compound `C[C@]12C=CC(=O)C=C1CC[C@@H]1[C@@H]2C(=O)C[C@@]2(C)[C@H]1CC[C@]2(O)C(=O)CO` ; its T/C = 107 % of control

// T/C value for `CCCc1c(C)[nH]c2ccccc12` : 104 % of control

According to the records, this compound `Cc1ccc(NC(=O)Oc2ccccc2C(N)=O)cc1NC(=O)Oc1ccccc1C(N)=O` displays T/C of 93 % of control

get_value(item= `CCCCCCCCCC(=O)N(CCCC)CCCC` , readout=T/C) returns 105 % of control

In plain terms, BrC1C2CC3C(C2)C13 (configuration not stated) has a documented T/C of 104 % of control

The measured T/C associated with `O=C(Oc1ccccc1Cl)c1ccc(Cl)c(Cl)c1` reads 98 % of control

The compound identified as `N#CC(C#N)=Cc1ccc(C=C(C#N)C#N)cc1` registered its T/C at 86 % of control

Item: `c1ccc2[nH]c(/N=N/c3nc4ccccc4[nH]3)nc2c1` | T/C: 95 % of control

O=C(CNC(=O)OCc1ccccc1)NC(Cc1ccccc1)C(=O)O (stereo not drawn) (Cbz-Gly-[ξF]-OH) has a reported T/C of 97 % of control
